Task for the reader: assign each of the following compounds its reported Macrophage cytotoxicity.
# Species: Mus musculus
# procedure text: Compound was evaluated for the induction of cytotoxic macrophages at concentration of 0.01 ug/mL
# Format: functional
Numbers only, in %.

Sample records with Macrophage cytotoxicity:
CCCCCCC(COP(=O)([O-])OCC[N+](C)(C)C)OCC (stereo unspecified)	0
CCCCCCCCCCCCCCCCCCCCCCCC(COP(=O)([O-])OCC[N+](C)(C)C)OCC (stereo unspecified)	0
CCCCCCCCCCC(COP(=O)([O-])OCC[N+](C)(C)C)OCC (stereo unspecified)	1
CCCCCCCCCCCCCCCCCC[C@H](COP(=O)([O-])OCC[N+](C)(C)C)OC(C)=O	0

Report Macrophage cytotoxicity for each item below.
1. CCCCCCCCCCCCCCCCOC[C@H](COP(=O)([O-])OCC[N+](C)(C)C)OCC
2. CCCCCCCCCCCCCCCCCCC(COP(=O)([O-])OCC[N+](C)(C)C)OCC (stereo unspecified)

Result:
4
1

---

# Organism: Mus musculus
# procedure text: Compound was evaluated for the induction of cytotoxic macrophages at concentration of 1 ug/mL
# Format: functional
measured endpoint: Macrophage cytotoxicity (%)
Give bare numbers, in %.

For every listed record, write down its Macrophage cytotoxicity.
1. CCCCCCC(COP(=O)([O-])OCC[N+](C)(C)C)OCC (stereo unspecified)
2. CCCCCCCCCCCCCCCCCCCCCCCC(COP(=O)([O-])OCC[N+](C)(C)C)OCC (stereo unspecified)
3. CCCCCCCCCCC(COP(=O)([O-])OCC[N+](C)(C)C)OCC (stereo unspecified)
4. CCCCCCCCCCCCCCCCOC[C@H](COP(=O)([O-])OCC[N+](C)(C)C)OCC
5. CCCCCCCCCCCCCCCCCCC(COP(=O)([O-])OCC[N+](C)(C)C)OCC (stereo unspecified)
6. CCCCCCCCCCCCCCCCCC[C@H](COP(=O)([O-])OCC[N+](C)(C)C)OC(C)=O

Result:
0
0
32
31
29
23
